# tested on: recombinant human MCHR1 receptors (Homo sapiens)
# assay explanation: MCHR Filter Binding Assay (competition binding with [Phe13[125I]Tyr19]-MCH)
# stated conditions: inhibition of binding of MCH to MCHR
For each of the compounds below, state its Ki.
Express your answer as a number followed by its unit.

# annotated cases, reported Ki shown
CC(=O)N(C[C@H]1Cc2ccc(C#N)cc2C1)[C@H]1CC[C@@H](n2c(C(C)(C)O)nc3cc(Cl)ccc32)CC1; 154 nM
Cc1ccc2c(c1)nc(C(C)(C)O)n2[C@H]1CC[C@@H](NCC2Cc3ccc(Cl)cc3C2)CC1 (some centres unmarked); 21 nM
Cc1nc2cc(F)ccc2n1[C@H]1CC[C@@H](NC[C@H]2Cc3ccc(C#N)cc3C2)CC1; 2 nM
CC(C)(O)c1nc2cc(Cl)ccc2n1[C@H]1CC[C@@H](NC[C@H]2Cc3ccc(Br)cc3C2)CC1; 19 nM

Enquiry: GET /values?readout=Ki&item= `CC(C)(O)c1nc2cc(Cl)ccc2n1[C@H]1CC[C@@H](NC[C@H]2Cc3ccc(C#N)cc3C2)CC1`
Return: 1.8 nM

###

# tested on: recombinant human MCHR1 receptors (Homo sapiens)
# Construct: expressed in transfected cells
# assay explanation: MCHR Filter Binding Assay (competition binding with [Phe13[125I]Tyr19]-MCH)
# stated conditions: membranes from CHO-K1 cells stably expressing human MCHR1; 0.2 nM radiolabeled MCH; read-out: Activity in MCHR binding assays (IC50 class)
pIC50: −log10 of the molar value. Where a name gives a salt, the structure may show the parent alone.
measured attribute: pIC50

CC(C)(O)c1nc2cc(Cl)ccc2n1[C@H]1CC[C@@H](NCC2Cc3ccc(C(F)(F)F)cc3C2)CC1 (relative stereo) [Example 8]; 6.00 to 7.00
Cc1ccc2c(c1)nc(C)n2[C@H]1CC[C@@H](NC2Cc3ccccc3C2)CC1 [Example 1, hydrochloride]; 6.00 to 7.00

Please state, for each entry, its recorded pIC50.
1. Cc1ccc2c(c1)nc(C(C)(C)O)n2[C@H]1CC[C@H](NCC2Cc3ccc(F)cc3C2)CC1 (stereo partly shown) [Example 19]
2. Cc1ccc2c(c1)nc(C)n2[C@@H]1CC[C@@H](NC[C@H]2Cc3ccc(Br)cc3C2)C1 [Example 2]

Return:
["6.00 to 7.00", "6.00 to 7.00"]

Please state, for each entry, its recorded pIC50.
1. Cc1ccc2c(c1)nc(C)n2[C@H]1CC[C@@H](NCC2Cc3ccc(Cl)cc3C2)CC1 (stereo partly shown) [Example 11]
2. Cc1ccc2c(c1)nc(C)n2[C@H]1CC[C@@H](NC[C@H]2Cc3ccc(C#N)cc3C2)CC1 [Example 15]
3. Cc1ccc2c(c1)nc(C(C)(C)O)n2[C@H]1CC[C@H](NC[C@H]2Cc3ccc(C#N)cc3C2)CC1 [Example 17]

Return:
1: 7.00 to 8.00; 2: 7.00 to 8.00; 3: 6.00 to 7.00

###

# tested on: recombinant human MCHR1 receptors (Homo sapiens, UniProt Q99705)
# Construct: expressed in transfected cells
# Sequence (Q99705 whole entry): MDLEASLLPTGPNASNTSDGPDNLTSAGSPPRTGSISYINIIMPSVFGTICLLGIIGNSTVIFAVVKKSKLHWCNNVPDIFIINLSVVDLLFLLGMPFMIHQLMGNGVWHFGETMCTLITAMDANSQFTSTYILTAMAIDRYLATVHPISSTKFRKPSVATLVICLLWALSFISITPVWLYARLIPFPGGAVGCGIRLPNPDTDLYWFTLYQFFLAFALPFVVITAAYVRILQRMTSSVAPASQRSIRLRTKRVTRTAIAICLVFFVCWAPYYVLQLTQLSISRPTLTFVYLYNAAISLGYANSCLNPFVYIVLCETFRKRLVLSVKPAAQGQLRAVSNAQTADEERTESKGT
# assay explanation: MCHR Filter Binding Assay (competition binding with [Phe13[125I]Tyr19]-MCH)
# stated conditions: membranes from CHO-K1 cells stably expressing human MCHR1; 0.2 nM radiolabeled MCH; read-out: Activity in MCHR binding assays (IC50 class)
pIC50: −log10 of the molar value. Where a name gives a salt, the structure may show the parent alone.
For each of the compounds below, state its pIC50.

Please state, for each entry, its recorded pIC50.
1. Cc1ccc2c(c1)nc(C(C)(C)O)n2[C@H]1CC[C@@H](NC[C@H]2Cc3ccc(C#N)cc3C2)CC1
2. Cc1ccc2c(c1)nc(C)n2[C@H]1CC[C@@H](NC[C@H]2Cc3ccc(Br)cc3C2)CC1 [Example 4, hydrochloride]
3. Cc1nc2cc(F)ccc2n1[C@H]1CC[C@@H](NC[C@H]2Cc3ccc(C#N)cc3C2)CC1
4. Cc1ccc2c(c1)nc(C)n2[C@H]1CC[C@@H](NC2Cc3ccc(Cl)cc3C2)CC1 (stereo partly shown) [Example 6, hydrochloride]

Return:
1. > 8.00
2. 7.00 to 8.00
3. > 8.00
4. 7.00 to 8.00

Where do the numbers come from? From patent US7652053B2.
